Target: human ether-à-go-go-related gene (hERG) potassium channel (human);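 further: peak tail current of the secondary pulse compared with the same well before compound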
Sequence (Q12809 whole entry, looked up): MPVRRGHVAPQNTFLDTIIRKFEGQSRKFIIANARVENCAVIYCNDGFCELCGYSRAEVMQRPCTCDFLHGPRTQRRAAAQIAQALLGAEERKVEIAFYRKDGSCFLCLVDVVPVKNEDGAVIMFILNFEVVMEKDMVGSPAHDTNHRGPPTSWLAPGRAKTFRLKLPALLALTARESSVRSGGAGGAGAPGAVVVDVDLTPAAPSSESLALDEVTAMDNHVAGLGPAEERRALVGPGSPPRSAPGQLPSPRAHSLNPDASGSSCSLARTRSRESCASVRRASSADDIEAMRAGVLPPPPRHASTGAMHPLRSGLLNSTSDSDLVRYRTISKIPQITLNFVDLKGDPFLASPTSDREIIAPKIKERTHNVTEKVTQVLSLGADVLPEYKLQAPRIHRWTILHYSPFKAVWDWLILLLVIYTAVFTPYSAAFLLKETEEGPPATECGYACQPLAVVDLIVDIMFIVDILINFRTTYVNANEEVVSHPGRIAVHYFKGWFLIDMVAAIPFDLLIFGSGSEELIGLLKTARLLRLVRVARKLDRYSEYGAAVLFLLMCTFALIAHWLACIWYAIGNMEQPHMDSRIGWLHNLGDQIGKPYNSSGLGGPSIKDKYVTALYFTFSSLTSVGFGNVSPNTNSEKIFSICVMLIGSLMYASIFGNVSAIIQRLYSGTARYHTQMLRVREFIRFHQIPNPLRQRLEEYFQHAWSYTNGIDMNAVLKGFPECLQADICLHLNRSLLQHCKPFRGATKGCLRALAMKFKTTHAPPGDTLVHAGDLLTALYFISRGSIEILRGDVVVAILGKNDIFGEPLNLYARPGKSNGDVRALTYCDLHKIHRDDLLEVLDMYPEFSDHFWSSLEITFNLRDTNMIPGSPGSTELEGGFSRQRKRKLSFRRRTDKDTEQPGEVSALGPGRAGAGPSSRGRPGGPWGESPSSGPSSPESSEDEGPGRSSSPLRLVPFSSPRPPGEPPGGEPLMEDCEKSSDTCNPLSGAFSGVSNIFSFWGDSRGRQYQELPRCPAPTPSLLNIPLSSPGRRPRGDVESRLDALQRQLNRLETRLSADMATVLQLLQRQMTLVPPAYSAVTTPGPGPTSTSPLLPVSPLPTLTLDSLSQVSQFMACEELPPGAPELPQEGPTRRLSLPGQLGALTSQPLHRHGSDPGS
Experiment: primary screen, population patch clamp on CHO cells stably expressing hERG; higher = less effect of the substance
Hit rate of the full screen: of about 310,000 compounds, about 14,000 (4.5%) showed an effect of 50% or more. Effects have a minus sign here. The entries come from a sample that favours strong results as a whole.
Reported Property: hERG current change (%, negative = inhibition) at 10uM (%)
Response body: numeric value in %, unit text excluded.

Request: Quick one: hERG current change (%, negative = inhibition) at 10uM for O=S(=O)(c1cccc(-c2nnc(-c3cccnc3)o2)c1)N1CCCCC1 ?
Response: -25

Request: What value of hERG current change (%, negative = inhibition) at 10uM has been reported for the following compound? CS(=O)(=O)Nc1ccc(C(=O)Nc2ccc(S(=O)(=O)N3CCCC3)cc2)cc1
Response: -13.7

Request: // returns reported hERG current change (%, negative = inhibition) at 10uM for input CCn1c(CC(=O)Nc2ccccc2F)nnc1SCC(=O)N1CCN(c2ccccc2)CC1
Response: 1.15

Request: Look at this compound and give its reported hERG current change (%, negative = inhibition) at 10uM. CCOc1ccc(CN2CCC(n3nccc3NC(=O)C3CC3)CC2)cc1CO
Response: -57.1

Request: Quick check: hERG current change (%, negative = inhibition) at 10uM of CCCC(=O)c1cc(F)c(N2CCN(S(=O)(=O)c3ccccc3)CC2)cc1C ?
Response: 13.2

Request: So what does the record say about hERG current change (%, negative = inhibition) at 10uM for CC(C)(O)C#Cc1ccc(CN2CCC(n3nccc3NC(=O)C3CC3)CC2)cc1 ?
Response: -19

Request: Fill in: hERG current change (%, negative = inhibition) at 10uM of CCC(=O)N1CCN(c2nc(C)nc3sc(C)c(C)c23)CC1 is ___
Response: -62

Request: What does the data say about its hERG current change (%, negative = inhibition) at 10uM? Entry: COC(=O)CCC(=O)c1oc2ccc(OC)cc2c1N
Response: 4.41

Request: Report hERG current change (%, negative = inhibition) at 10uM for O=C(COc1ccccc1)N1CCN(c2ccccc2)CC1 please.
Response: -3.1

Request: Query (compound): CNC(=S)Nc1cc(OC)c(NC(=O)c2ccco2)cc1OC ; field requested: hERG current change (%, negative = inhibition) at 10uM
Response: 14.9

Request: Requested read-out: hERG current change (%, negative = inhibition) at 10uM. Entry: CCOc1cc(CN2CCC(n3nccc3NC(=O)C3CC3)CC2)ccc1O
Response: -22

Request: Can you share its hERG current change (%, negative = inhibition) at 10uM? I mean this compound: CCOc1c(OC(C)=O)ccc(/C=C/c2ccc3cccc(OC(C)=O)c3n2)c1[N+](=O)[O-]
Response: -4.23

Request: Given COC(=O)c1ccc(CN2CCC(n3nccc3NC(=O)C3CCCC3)CC2)cc1 , state its recorded hERG current change (%, negative = inhibition) at 10uM.
Response: -67.7

Request: Entry Cc1nc(N2CCN(C(=O)CCC(=O)O)CC2)c2c(C)c(C)sc2n1 has what hERG current change (%, negative = inhibition) at 10uM?
Response: -1.2

Request: Please report the recorded hERG current change (%, negative = inhibition) at 10uM for Cc1ccc(CNC(=O)C2CC=CCC2C(=O)O)cc1 (centres unmarked) .
Response: 16.3

Request: Can you look up the measured hERG current change (%, negative = inhibition) at 10uM of O=C(Cn1nnc(-c2ccccc2)n1)c1ccccc1 for me?
Response: 7.22

Request: Looking for the measured hERG current change (%, negative = inhibition) at 10uM of Cc1nc(N2CCN(S(=O)(=O)c3ccc(Br)cc3)CC2)c2c(C)c(C)sc2n1 , can you help?
Response: -10.7

Request: Query: hERG current change (%, negative = inhibition) at 10uM; subject: COc1ccc(CN2CCC(n3nccc3NC(=O)C3CCCC3)CC2)cc1
Response: -68.9

Request: Which hERG current change (%, negative = inhibition) at 10uM is listed for Cc1sc2ncnc(OCC(=O)N3CCN(S(=O)(=O)c4ccccc4)CC3)c2c1C ?
Response: -2.31

Request: Which value of hERG current change (%, negative = inhibition) at 10uM has been reported for COC(=O)c1ccc(CN2CCC(n3nccc3NC(=O)C3CC3)CC2)cc1 in the records?
Response: -55.6
